All values here come from patent US20050209278A1.

biological target: MMP-13 (Homo sapiens, UniProt P45452); construct: made in house; host or cells: baculovirus / insect cells; test: In vitro MMP inhibition, Ki determination (fluorogenic substrate II); type: biochemical; conditions: human recombinant enzyme; 4 μM substrate II; room temperature, 1 hr; read-out: MMP-13 Ki
Counter-ions that a name gives are not always drawn.
MEASURED PROPERTY: Ki (nM)

Consider the worked cases shown below.
{"COMPOUND": "O=C(NO)C1(S(=O)(=O)N2CCC(c3ccc(OCC(F)(F)F)cc3)CC2)CCN(C2CC2)CC1 [Example 25, Hydrochloride]", "Ki [nM]": 0.97}
{"COMPOUND": "COCCN1CCC(C(=O)NO)(S(=O)(=O)N2CCN(c3ccc(OCCCC(F)(F)F)cc3)CC2)CC1 [Example 9, Dihydrochloride]", "Ki [nM]": 0.05}
{"COMPOUND": "COc1ccc(-c2cnc(N3CCN(S(=O)(=O)C4(C(=O)NO)CCOCC4)CC3)nc2)cc1 [Example 8, Hydrochloride]", "Ki [nM]": 0.11}
{"COMPOUND": "O=C(NO)C1(S(=O)(=O)N2CCC(c3cnc(OCC(F)(F)C(F)(F)F)cn3)CC2)CCOCC1", "Ki [nM]": 0.5}
{"COMPOUND": "CCCCCc1ccc(N2CCN(S(=O)(=O)C3(C(=O)NO)CCN(CC)CC3)CC2)cc1F [Example 22, Hydrochloride]", "Ki [nM]": 2.78}

(1) CCCCOc1ccc(N2CCN(S(=O)(=O)C3(C(=O)NO)CCN(CCOC)CC3)CC2)cc1F [Example 11, Dihydrochloride]
(2) CCOc1ccc(N2CCN(S(=O)(=O)C3(C(=O)NO)CCOCC3)CC2)cc1
I need your help: which of the pair 1 , 2 has higher Ki? Please respond with the label that marks your chosen entry.
2

====

molecular target: MMP-14 (Homo sapiens, UniProt P50281); construct: The catalytic domain enzyme was expressed in E. coli inclusion bodies, solubilized in urea; made in house; assay: MMP-14 inhibition (in vitro Ki); type: biochemical; settings: Table 8; read-out: MMP-14 Ki
Where a name gives a salt, the structure may show the parent alone.
MEASURED PROPERTY: Ki (µM)

Consider the worked cases shown below.
{"COMPOUND": "O=C(NO)C1(S(=O)(=O)N2CCN(c3ccc(CCCC(F)(F)F)c(F)c3)CC2)CCN(C2CC2)CC1 [Example A62, Hydrochloride]", "Ki / µM": 9.05}
{"COMPOUND": "O=C(NO)C1(S(=O)(=O)N2CCC(CCCOCCCC(F)(F)F)CC2)CCOCC1 [Example A36J]", "Ki / µM": 6.55}

(A) CCCOCCCCC1CCN(S(=O)(=O)C2(C(=O)NO)CCOCC2)CC1
(B) O=C(NO)C1(S(=O)(=O)N2CCC(OCCCCCC(F)(F)C(F)(F)F)CC2)CCOCC1
I need your help: which of the pair A , B has higher Ki? Please respond with the label that marks your chosen entry.
B
(B: 4.56 µM, A: 1.41 µM)

(A) CC(F)(F)CCc1ccc(C2CCN(S(=O)(=O)C3(C(=O)NO)CCOCC3)CC2)nc1 [Example A63, Hydrochloride]
(B) COCCC(C(=O)NO)S(=O)(=O)N1CCC(c2ccc(CCC(F)(F)C(F)(F)F)cc2)CC1 (centres unmarked)
(C) O=C(NO)C1(S(=O)(=O)N2CCC(CCCCCCC(F)(F)C(F)(F)F)CC2)CCOCC1
Rank entries according to their Ki, from the largest number down. As an answer, provide the labels arranged in the order called for.
B, A, C
(B: 9.64 µM, A: 1.84 µM, C: 1.26 µM)
